Tested on: P. falciparum 3D7 growth, pLDH absorbance
Assay: blood-stage malaria parasite growth potency – strain 3D7, dose response (AID 2305)
value kind: pIC50
Hey, just a heads up that pIC50 is the negative log base 10 of the concentration in molar.

COc1ccc2c(OC)ccc(CNCCCCCCNCc3ccc(OC)c4ccc(OC)cc34)c2c1: 6.40

## Task # lookup: P. falciparum 3D7 growth, pLDH absorbance pIC50, key = N#Cc1cccc(NC(=O)c2cccc(S(=O)(=O)NC3CCN(CC4CCCCC4)C3)c2)c1 (centres undefined)
## Result 6.24

## Task For P. falciparum 3D7 growth, pLDH absorbance, give the measured pIC50 of the entry `N#Cc1ccc2[nH]cc(C(=O)CCCCCN(Cc3ccccc3)Cc3ccccc3)c2c1`
## Result 6.10

## Task State recorded pIC50 with P. falciparum 3D7 growth, pLDH absorbance, entry `c1ccc(-c2ccc(CNCc3ccc(-c4cccc(-c5nc6ccccc6[nH]5)c4)cc3)s2)nc1` , no comment.
## Result 6.40

###

Test system: P. falciparum 3D7 growth, pLDH absorbance
Assay: blood-stage malaria parasite growth potency – strain 3D7, dose response (AID 2305)
value kind: IC50 (nM)
Answer with a number only, understood to be in nM.

## Task Give reported IC50 value for `Cc1cc(NC(=O)[C@@H](Nc2ccc(C#N)c3ccccc23)C2CCCCC2)ccc1F`
## Result 890

## Task Report measured IC50; entry is `CCOCn1c(-c2ccccc2)cc2c3c(N)nc(N)nc3ccc21`
## Result 190

## Task Report IC50 for `COc1cc(OC)c2c(C)cc(NCCCN3CCOCC3)nc2c1`
## Result 1070

## Task Tell me IC50 reported for COc1ccc(C2C(C(=O)Nc3ccc(C)c(F)c3)c3cc(OC)c(OC)cc3C(=O)N2C)cc1 (centres undefined)
## Result 960

## Task State, in one line, measured IC50 of O=C(/C=C/c1ccc(Cl)c(Cl)c1)NC1CCN(Cc2ccc(O)cc2)C1 (centres undefined)
## Result 950

## Task Input `CN(Cc1cc(C(F)(F)F)cc(C(F)(F)F)c1)C(=O)[C@H]1CNC[C@@H]1c1ccc(F)cc1` , output reported IC50.
## Result 830

## Task Give the reported value of IC50 for this record: `CN(C)S(=O)(=O)c1ccc(N2C(=O)[C@@H]3[C@H](C2=O)[C@@]2(c4ccccc4)C(=O)[C@]3(c3ccccc3)C(c3ccccc3)=C2c2ccccc2)cc1`
## Result 950

## Task Please supply the value of reported IC50 for the item COc1ccc(F)cc1-c1cccc(CNC2CCN(CC3Cn4c(=O)ccc5ccc(F)c3c54)CC2)c1 (centres undefined)
## Result 830

## Task // fetch IC50 given entry `Cc1cc(NC(=O)c2ccsc2)ccc1OC1CCN(Cc2ccc(F)cc2)CC1`
## Result 1220

###

System: P. falciparum 3D7 growth, pLDH absorbance
Assay: blood-stage malaria parasite growth potency – strain 3D7, dose response (AID 2305)
value kind: pIC50
# pIC50 = -log10(concentration in molar units)

Consider the reported pIC50 for these molecules:
O=C(Nc1ccc(-c2nc3ccc(NC(=O)c4ccc(Br)cc4)cc3[nH]2)cc1)c1ccc(Br)cc1: 6.10
COc1ccc2nccc([C@@H](O)CN3CCC(NCc4ccc5c(c4)nnn5C(C)C)CC3)c2c1: 6.19
CC1CN=C(c2ccc(NC(=O)Nc3ccc(C4=NCC(C)N4)cc3)cc2)N1 (stereo not given): 6.42

## Task State its pIC50 for this molecule: `CC(C)c1cccc(OCC2CCN(c3ccc(C(=O)Nc4ccccc4)cn3)CC2)c1`
## Result 6.15

## Task Return the recorded pIC50 value; entry: `Cc1cc(C)c(C(=O)Nc2ccc3nc(C)cc(N)c3c2)c(C)c1`
## Result 5.96

###

Tested on: P. falciparum 3D7 growth, pLDH absorbance
Assay: blood-stage malaria parasite growth potency – strain 3D7, dose response (AID 2305)
value kind: pIC50
Expect pIC50 as a plain number equal to -log10 of the molar concentration.

CCOc1cc2c(cc1OCC)C(c1cc(OC)c(O)cc1Cl)NCC2 (stereo not given): 6.12
Fc1ccc2nc(-c3cccc(-c4cccc(CNCc5cnn(-c6ccccc6)n5)c4)c3)[nH]c2c1: 6.01
Cc1cc(C(F)(F)F)cc(-n2ncc(-c3ccc(C(=O)NCCNCc4ccccc4)cc3)c2N)n1: 5.97
Cc1cc(C(=O)NCc2ccc(-c3c(C)noc3C)cc2)n(-c2ccc(Cl)cc2)n1: 6.28
N=C(N)c1cc(Br)cc(NC(=O)Nc2cc(Br)cc(C(=N)N)c2)c1: 6.09

## Task Recall and state the measured pIC50 for `O=C(NCc1ccccc1)Nc1ccc(-c2ccc(-c3nc4ccc(C(F)(F)F)cc4[nH]3)cc2)cc1` .
## Result 6.17

## Task Report measured pIC50; entry is `COc1ccc2nccc([C@@H](O)CN3CCC(NCc4cc5cccnc5[nH]4)CC3)c2n1`
## Result 6.02

## Task Specify measured pIC50 for `Fc1ccc2nc(-c3cccc(-c4ccc(CN5CCN(c6ccncc6)CC5)cc4)c3)[nH]c2c1` .
## Result 6.68

## Task Find the measured pIC50 of `Oc1ccc2[nH]c(-c3cccc(F)c3)nc2c1CN1CCC(N2CCCC2)CC1` and report it.
## Result 6.74

## Task Fill in reported pIC50 for this entry: `COc1cccc(NC(=O)CSc2nc(-c3ccccc3Cl)ns2)c1`
## Result 6.09

###

Test system: P. falciparum 3D7 growth, pLDH absorbance
Test: blood-stage malaria parasite growth potency – strain 3D7, dose response (AID 2305)
Reported IC50 is given for each of the following compounds.
Answer in nM, number only, no unit symbol.

Consider the worked cases shown below.
COc1ccc(CC(=O)NC(CCCN2CCC3(CC2)OCc2ccccc23)c2ccc(Cl)c(Cl)c2)cc1 (stereo not given): 1130
Cc1csc2nc(-c3ccccn3)nc(Nc3ccncn3)c12: 790
Cc1c(Cc2ccc(C(C)C)cc2)cnc2nc(N)nc(N)c12: 300
COc1ccc(CNCc2ccccc2)cc1-c1ccc(S(=O)(=O)NCCN2CCCC2)cc1: 820
Cc1ccc2ccncc2c1N: 700

## Task Supply IC50 measured with P. falciparum 3D7 growth, pLDH absorbance for `Oc1cccc(-c2cnc3ccc(NCc4ccc(F)cc4)nn23)c1` .
## Result 1080

## Task Quote P. falciparum 3D7 growth, pLDH absorbance IC50 for entry CCCCCCNC(=O)C1Cc2c([nH]c3ccc(Br)cc23)C2(CCN(Cc3ccccc3)CC2)N1 (stereo not given) .
## Result 720

## Task Using P. falciparum 3D7 growth, pLDH absorbance as the test system, report measured IC50 of `COc1ccc(Nc2nc(NN=Cc3cc(Br)c(O)cc3O)nc(Nc3ccc([N+](=O)[O-])cc3)n2)cc1` .
## Result 900

## Task Provide IC50, tested on P. falciparum 3D7 growth, pLDH absorbance, for `COc1cc(NC(=O)Nc2ccc([N+](=O)[O-])cc2OC)c(OC)cc1Cl` .
## Result 1470

## Task Send back P. falciparum 3D7 growth, pLDH absorbance IC50 of `CCOc1ccc(-c2nonc2NC(=O)CC(C)C)cc1OCC` only.
## Result 980

###

Tested on: P. falciparum 3D7 growth, pLDH absorbance
Assay: blood-stage malaria parasite growth potency – strain 3D7, dose response (AID 2305)
value kind: pIC50
The meaning of pIC50 here: minus log10 of the concentration in molar units.

Check out these entries, answers already filled in.
COc1cccc(C2(C)CCN(CCCCNC(=O)c3ccc(NC(=O)c4ccc(Cl)cc4)cc3)CC2)c1: 6.08
O=C(CSc1nccn1Cc1ccco1)Nc1cc(C(F)(F)F)ccc1Cl: 6.09
OCC1CCN(Cc2ccc(-c3cccc(-c4nc5ccccc5[nH]4)c3)cc2)CC1: 6.09

Now look at this one.
## Task Answer with reported pIC50 of `COc1ccc2nc3cc(Cl)ccc3c(NCCCCNc3c4ccc(Cl)cc4nc4ccc(OC)cc34)c2c1`
## Result 6.80

###

Tested on: P. falciparum 3D7 growth, pLDH absorbance
Test: blood-stage malaria parasite growth potency – strain 3D7, dose response (AID 2305)
# pIC50 per entry
pIC50 (log units): -log10 of the concentration in mol/L.

CCc1c(C(=O)NC2CCC(N3CCC(c4ccccc4C)CC3)CC2)[nH]c2ccc(Br)cc12 (centres undefined): 6.03
O=C(c1ccc([N+](=O)[O-])o1)N1CCC(Cc2ccc(C(F)(F)F)cc2)CC1: 6.77
CCCCCCn1c(Sc2ccc(C#N)c([N+](=O)[O-])c2)nnc1-c1cc(OC)cc(OC)c1: 6.11
CS(=O)(=O)c1ccc(OCCCN(Cc2ccccc2C(F)(F)F)c2ccc(C#N)c(C(F)(F)F)c2)cc1: 5.99
O=S(=O)(NCCN1CCCC1)c1cccc(-c2cccc(CNCc3ccccc3)c2)c1: 6.09

## Task Indicate its recorded pIC50; the compound in question is `Cc1cc(N(CCCN(C)C)Cc2cc(F)cc(F)c2)nc(Nc2ccc(Cl)cc2)n1`
## Result 6.27

## Task Quickly give me recorded pIC50 for CC(C)(C)c1ccc(CNC(=O)c2cc(CNC3CCC(N)CC3)ccc2O)cc1 (centres undefined)
## Result 5.99

## Task Note down pIC50 recorded for `c1cc(CNCCN2CCNCC2)cc(-c2cccc(-c3nc4ccccc4[nH]3)c2)c1`
## Result 6.02

All values here come from PubChem BioAssay AID2305.
